FYI, the data here is from PubChem BioAssay (NCI).

- System: NCI-H522 lung
- measurement-protocol: NCI-60 one-dose screen, 48 h (100 = growth as untreated, 0 = no growth, -100 = all killed)
- measurement-parameters: 10 µM unless noted
This is part of a sample that, as a whole, favours compounds with a hit. Of some 83,000 tested, about 20% had one in any assay.
Decision: growth beneath 70% gives yes (1); growth meeting or exceeding 70% gives no (0).

Consider O=C1Nc2ccc(Br)cc2C1=N/C=c1\[nH]c(=O)/c(=C/c2ccc(Cl)cc2)s1 . Does its growth lie strictly below 70%?
no (0)

----------
- Tested on: COLO 205 colon
- measurement-protocol: NCI-60 one-dose screen, 48 h (100 = growth as untreated, 0 = no growth, -100 = all killed)
- measurement-parameters: 10 µM unless noted
Compounds without any hit were thinned out: in the full panel of roughly 83,000, 20% have a hit.
Everything with growth lower than 60% is condition not met; everything else, including exactly 60%, is condition met.

- compound: "C[C@]12CC[C@@H]3c4cc(O)c(O)cc4CC[C@H]3[C@@H]1CC[C@@H]2O"
  cat: "condition met"
- compound: "CC(C)C(C(=O)CCN(C)C)c1ccc(Cl)cc1 (stereo unspecified)"
  cat: "condition met"
- compound: "COc1ccc2c(c1)NC(=O)CN2c1nc(C)nc2ccccc12"
  cat: "condition not met"
- compound: "CCN1C(=O)N(CC)C2C1NN=c1s/c(=C3\\C(=O)N(C4CCCC4)c4ccccc43)c(=O)n12 (stereo unspecified)"
  cat: "condition not met"
- compound: "CC(=O)Nc1nc(C(=O)N2N=C(C)/C(=C/c3ccc(Cl)cc3)C2=O)cs1"
  cat: "condition met"
- compound: "Cc1nc(Nc2cccnc2)sc1C(=O)/C=C/c1ccc(F)cc1"
  cat: "condition not met"
- compound: "COc1ccc(S(=O)(=O)Nc2cc(/C=C\\c3cc(OC)c(OC)c(OC)c3)cc(OC)c2OC)cc1OC"
  cat: "condition not met"
- compound: "CCCC(C(=O)OCC)C(C)OC(=O)OCC (stereo unspecified)"
  cat: "condition met"
- compound: "C=C1C(=O)O[C@H]2[C@H]1CC/C(COC(=O)NCCc1ccc(OC)cc1)=C\\CC[C@@]1(C)O[C@@H]21"
  cat: "condition not met"
- compound: "O=C(Nc1ccc(Br)c(Cl)c1)c1cc(F)ccc1O"
  cat: "condition not met"

Check the entry COc1ccc(/C=N/NC(=O)Cn2c(Cc3cccc4ccccc34)nc3ccccc32)cc1 : does growth equal or exceed 60%?
condition met

Likewise for CCCS(=O)(=O)c1nc(NC2CC2)cc(-c2ccc3c(ccn3C3CC(C)(C)NC(C)(C)C3)c2)n1 ?
condition not met

What would you report for O=C1CCCCC=C1C[N+](=O)[O-] ?
condition not met

----------
- Test system: KM12 colon
- measurement-protocol: NCI-60 one-dose screen, 48 h
- measurement-parameters: 10 µM unless noted
This is part of a sample that, as a whole, favours compounds with a hit. Of some 83,000 tested, about 20% had one in any assay. Activity calls are given as the source filed them. How the source made its calls: active means growth percent below 10; inactive means the rest.
Outcome (select one): active, inactive

The following compounds have reported results that may help.
- compound: "O=C1CCCCC=C1C[N+](=O)[O-]"
  cat: "inactive"
- compound: "COc1cc2oc(-c3cccc(NC(=O)Nc4ccc5c(c4)OCO5)c3)cc(=O)c2c(OC)c1OC"
  cat: "inactive"
- compound: "COc1cc2c3c(c(=O)oc2cc1OS(=O)(=O)c1ccc(C(F)(F)F)cc1)CCCCC3"
  cat: "inactive"

I'd appreciate the recorded outcome for O=C(Nc1ccc(Cl)cc1)c1cc(-c2ccc(F)cc2)c2sc(=O)[nH]c2n1 from this test.
active

Now this one: C=C1C(=O)O[C@H]2[C@H]1CC/C(COC(=O)NCc1cc(OC)cc(OC)c1)=C\CC[C@@]1(C)O[C@@H]21
inactive

Also, Cc1cc(-c2ccccc2)c(C)n1Cc1ccc(Cl)cc1 please.
inactive

Also, O=C1CCC(=O)N1Cc1ccccc1 please.
inactive

What would you report for CCCC(C(=O)OCC)C(C)OC(=O)OCC (stereo unspecified) ?
inactive

Entry NC(=S)NN=C1CCCCC1 please
inactive

Same thing, different compound: CC[C@]1(O)C[C@@H]2CN(Cc3c([nH]c4ccccc34)[C@@](C(=O)OC)(c3cc4c(cc3OC)N(C)[C@H]3[C@@](O)(C(=O)OC)[C@H](OC(C)=O)[C@]5(CC)[C@@H]6C[C@@H]6CN6CC[C@]43[C@@H]65)C2)C1
active

Queued: Cc1ccc(Cn2c(-c3nonc3N)nc3ccccc32)cc1
inactive

----------
- Test system: MALME-3M melanoma
- measurement-protocol: NCI-60 one-dose screen, 48 h (100 = growth as untreated, 0 = no growth, -100 = all killed)
- measurement-parameters: 10 µM unless noted
This is part of a sample that, as a whole, favours compounds with a hit. Of some 83,000 tested, about 20% had one in any assay.
Values of growth strictly less than 60% map to 1, and values of at least 60% map to -1.

Sample answers from the record:
- compound: "Cc1cc(NC(=O)COC(=O)c2sc3cc(F)ccc3c2Cl)no1"
  cat: -1
- compound: "CC1=CNNc2c3ncnc-3ncn21"
  cat: -1
- compound: "Nc1nn2cc(-c3ccc(Cl)s3)nc2c2ccccc12"
  cat: -1
- compound: "Cc1nc2sccn2c1-c1csc(Nc2ccccc2Cl)n1"
  cat: 1
- compound: "c1ccc([P+](CCC[P+](c2ccccc2)(c2ccccc2)c2ccccc2)(c2ccccc2)c2ccccc2)cc1"
  cat: -1

Please determine if CN1CCN(CCCOc2ccc3nc(Nc4ccc(C(F)(F)F)c(Cl)c4)ccc3c2)CC1 is below 60% in terms of growth.
1

For COc1ncc(-c2ccc3ncnc(Nc4cccc(Cl)c4)c3c2)cc1N(S(C)(=O)=O)S(C)(=O)=O then?
1

Record: COc1ccc(OC)c(-c2ccc(-c3ccccc3N)c3[nH]c4ccccc4c23)c1
-1

// same read-out, input: O=C(/C=C/CN1CCCCC1)Nc1cc2c(Nc3ccc(F)c(Cl)c3F)ncnc2cc1OCCOC(F)F
1

Moving on to the next compound: CC(=O)OCC1OC(OCC2OC(OC(C)=O)C(OC(C)=O)C(OC(C)=O)C2OC(C)=O)C(OC(C)=O)C(OC(C)=O)C1OC(C)=O (stereo not given)
-1

----------
- System: K-562 leukemia
- measurement-protocol: NCI-60 one-dose screen, 48 h
- measurement-parameters: 10 µM unless noted
Compounds without any hit were thinned out: in the full panel of roughly 83,000, 20% have a hit. Active and inactive are the calls of the source. How the source made its calls: active means growth percent below 10; inactive means the rest.
Outcome field: choose from y = active, n = inactive

Solved entries:
- molecule: "COC1=CC(c2ccc[nH]2)=N/C1=C\\c1[nH]c(C)c(C(=O)CCCCC(=O)Nc2ccccc2)c1C"
  cat: "n"
- molecule: "CCCCCCCN(CCCCCCC)C(=N)c1ccc(OC)c2ccccc12"
  cat: "y"
- molecule: "Cc1ccc(S(=O)(=O)NCCCNc2nccc(-c3c(-c4ccccc4)nc4sccn34)n2)cc1"
  cat: "n"
- molecule: "Cc1cc2c(c(=O)o1)C(c1ccc(OC(=O)N3CCOCC3)cc1)C(C#N)=C(N)O2 (stereo not given)"
  cat: "n"
- molecule: "CN(C)c1ccc(/C=C\\N=Nc2ccc(Br)cc2)cc1"
  cat: "n"

Fill in: this test's call for CCN1C(=O)N(CC)C2C1NN=c1s/c(=C\c3ccccn3)c(=O)n12 (stereo not given) is ___
y

----------
- Tested on: DU-145 prostate
- measurement-protocol: NCI-60 one-dose screen, 48 h (100 = growth as untreated, 0 = no growth, -100 = all killed)
- measurement-parameters: 10 µM unless noted
Compounds without any hit were thinned out: in the full panel of roughly 83,000, 20% have a hit.
recorded-metric: growth (%)
Write the number in % without appending the unit.

See these solved cases before continuing.
- molecule: "C=C1C(=O)O[C@H]2[C@H]1CC/C(COC(=O)NCc1cc(OC)c(OC)c(OC)c1)=C\\CC[C@@]1(C)O[C@@H]21"
  assayed-system: "DU-145 prostate"
  recorded-metric: "growth"
  assay-value: 43.3
- molecule: "Cc1cc(Nc2nc(-c3ccc(F)cc3)nc3ccccc23)n[nH]1"
  assayed-system: "DU-145 prostate"
  recorded-metric: "growth"
  assay-value: 77.1
- molecule: "COc1ccc(Cl)cc1NC(N)=S"
  assayed-system: "DU-145 prostate"
  recorded-metric: "growth"
  assay-value: 108
- molecule: "COc1ccc(OC)c(-c2ccc(-c3ccccc3N)c3[nH]c4ccccc4c23)c1"
  assayed-system: "DU-145 prostate"
  recorded-metric: "growth"
  assay-value: 89.6
- molecule: "CC(=O)C1CCC(C)=CC1=O (stereo not given)"
  assayed-system: "DU-145 prostate"
  recorded-metric: "growth"
  assay-value: 114

Alright, here's another molecule for you.
Look up growth: Cc1cc2c(C(C)C)c(O)c(O)c(C=NCCCCCCC(=O)O)c2c(O)c1-c1c(C)cc2c(C(C)C)c(O)c(O)c(C=NCCCCCCC(=O)O)c2c1O
51.3
